Quick record of pKi values for Muscarinic acetylcholine receptor M4 (Homo sapiens).
pKi: −log10 of the molar value.

MOLECULE	SUBJECT_OF_TEST	COMPARATOR	pKi
CC1COCC(C[N+](C)(C)C)O1.[I-] (racemic; form 2)	Muscarinic acetylcholine receptor M4 (Homo sapiens)	=	4.06
C[C@@H]1COC[C@@H](C[N+](C)(C)C)O1.[I-]	Muscarinic acetylcholine receptor M4 (Homo sapiens)	<	4.00
C[C@H]1COC[C@@H](C[N+](C)(C)C)O1.[I-]	Muscarinic acetylcholine receptor M4 (Homo sapiens)	=	5.01
CC1COCC(C[N+](C)(C)C)O1.[I-] (racemic; form 1)	Muscarinic acetylcholine receptor M4 (Homo sapiens)	=	4.94
C[C@H]1COC[C@H](C[N+](C)(C)C)O1.[I-]	Muscarinic acetylcholine receptor M4 (Homo sapiens)	=	4.34
C[C@@H]1COC[C@H](C[N+](C)(C)C)O1.[I-]	Muscarinic acetylcholine receptor M4 (Homo sapiens)	=	4.16

###

Ki data for Muscarinic acetylcholine receptor M2 (Homo sapiens, UniProt P08172) follow.

MOLECULE	SUBJECT_OF_TEST	UNIT_DESCRIPTOR	Ki
CC1COCC(C[N+](C)(C)C)O1.[I-] (racemic; form 1)	Muscarinic acetylcholine receptor M2 (Homo sapiens, UniProt P08172)	µM	2.09
C[C@H]1COC[C@@H](C[N+](C)(C)C)O1.[I-]	Muscarinic acetylcholine receptor M2 (Homo sapiens, UniProt P08172)	µM	1.26
C[C@@H]1COC[C@@H](C[N+](C)(C)C)O1.[I-]	Muscarinic acetylcholine receptor M2 (Homo sapiens, UniProt P08172)	µM	61.7
C[C@H]1COC[C@H](C[N+](C)(C)C)O1.[I-]	Muscarinic acetylcholine receptor M2 (Homo sapiens, UniProt P08172)	µM	5.25
CC1COCC(C[N+](C)(C)C)O1.[I-] (racemic; form 2)	Muscarinic acetylcholine receptor M2 (Homo sapiens, UniProt P08172)	µM	4.9
C[C@@H]1COC[C@H](C[N+](C)(C)C)O1.[I-]	Muscarinic acetylcholine receptor M2 (Homo sapiens, UniProt P08172)	µM	6.92

###

- SUBJECT_OF_TEST: Muscarinic acetylcholine receptor M3 (Cavia porcellus) (UniProt Q8VH26)
- Sequence (Q8VH26 1-587): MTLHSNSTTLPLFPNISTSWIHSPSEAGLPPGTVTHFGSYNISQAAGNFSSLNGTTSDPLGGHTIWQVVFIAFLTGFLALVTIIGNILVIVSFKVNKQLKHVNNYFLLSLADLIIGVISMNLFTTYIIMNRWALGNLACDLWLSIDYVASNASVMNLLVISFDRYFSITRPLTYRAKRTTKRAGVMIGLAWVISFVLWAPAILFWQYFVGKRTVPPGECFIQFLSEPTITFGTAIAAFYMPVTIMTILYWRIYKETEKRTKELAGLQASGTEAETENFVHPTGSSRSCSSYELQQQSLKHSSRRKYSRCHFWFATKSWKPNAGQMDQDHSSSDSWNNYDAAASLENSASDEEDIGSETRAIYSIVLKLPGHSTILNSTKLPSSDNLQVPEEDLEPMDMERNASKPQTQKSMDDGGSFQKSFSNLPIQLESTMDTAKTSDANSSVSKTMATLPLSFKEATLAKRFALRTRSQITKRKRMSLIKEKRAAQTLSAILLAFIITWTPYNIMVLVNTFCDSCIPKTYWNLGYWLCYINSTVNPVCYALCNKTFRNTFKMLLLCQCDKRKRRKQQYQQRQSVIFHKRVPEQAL
- METHOD: Intrinsic activity at muscarinic M3 receptor in guinea-pig ileum assessed as ratio of agonist activity to activity of arecaidine propargyl ester
- Type: functional, tissue-based
Param threshold (7) applies to pD2; output True when value >= threshold, False when value < threshold.

COMPOUND	LABEL_VALUE
C[C@@H]1COC[C@@H](C[N+](C)(C)C)O1.[I-]	False
CC1COCC(C[N+](C)(C)C)O1 (racemic; form 1)	True
C[C@@H]1COC[C@H](C[N+](C)(C)C)O1.[I-]	False
C[C@H]1COC[C@H](C[N+](C)(C)C)O1.[I-]	False
C[C@H]1COC[C@@H](C[N+](C)(C)C)O1.[I-]	True
CC1OC(C[N+](C)(C)C)CC1O (racemic)	True

###

- SUBJECT_OF_TEST: Muscarinic acetylcholine receptor M5 (Homo sapiens, UniProt P08912)
- Sequence (P08912 whole entry): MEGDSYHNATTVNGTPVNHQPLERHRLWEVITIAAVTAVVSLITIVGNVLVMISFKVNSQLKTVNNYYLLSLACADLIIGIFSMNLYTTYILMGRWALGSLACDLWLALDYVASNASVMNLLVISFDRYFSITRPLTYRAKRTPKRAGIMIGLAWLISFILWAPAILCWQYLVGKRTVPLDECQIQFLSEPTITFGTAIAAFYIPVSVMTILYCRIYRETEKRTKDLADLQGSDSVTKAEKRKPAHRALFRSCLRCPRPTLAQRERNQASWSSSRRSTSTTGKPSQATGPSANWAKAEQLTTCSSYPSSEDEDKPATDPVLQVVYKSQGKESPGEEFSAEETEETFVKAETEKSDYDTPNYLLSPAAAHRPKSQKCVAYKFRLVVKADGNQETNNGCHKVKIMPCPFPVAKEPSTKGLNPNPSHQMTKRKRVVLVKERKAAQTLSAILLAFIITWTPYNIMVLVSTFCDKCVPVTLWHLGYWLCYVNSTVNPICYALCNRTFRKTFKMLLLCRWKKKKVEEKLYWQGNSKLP

MOLECULE	Ki (µM)
CC1COCC(C[N+](C)(C)C)O1.[I-] (racemic; form 1)	7.76
C[C@@H]1COC[C@H](C[N+](C)(C)C)O1.[I-]	44.7
C[C@@H]1COC[C@@H](C[N+](C)(C)C)O1.[I-]	87.1
CC1COCC(C[N+](C)(C)C)O1.[I-] (racemic; form 2)	67.6
C[C@H]1COC[C@@H](C[N+](C)(C)C)O1.[I-]	4.57

Data origin, for the record: ChEMBL document CHEMBL1140814
